meta.source: ChEMBL document CHEMBL1201862

tested on: HOP-62; assay: NCI tumour cell line growth inhibition, 48 h
The source made the active and inactive calls. No stated cut-off is given here; in the data, active = GI50 up to about 1.1 µM and inactive = higher.
endpoint: GI50

- molecule: "OC1[C@@H]2[C@@H](O)CCCN2C[C@@H](O)[C@H]1O (stereo not given in full)"
  value.reported: "> 100 µM (inactive)"
- molecule: "CNC(=O)SCC(N)C(=O)O (stereo not given)"
  value.reported: "> 100 µM (inactive)"
- molecule: "COC(=O)c1cc2ccc(O)c(O)c2cn1"
  value.reported: "20.6 µM (inactive)"

Inquiry: Which GI50 is reported with HOP-62 for this entry: CN(CCCCN1CCCC1)CCCN(C)C(=O)Cc1ccc(Cl)c(Cl)c1 ?
Reply text: 13.9 µM (inactive)

Inquiry: Which GI50 is reported with HOP-62 for this entry: C[N+](C)(C)[BH-](Br)C(O)O (stereo not given) ?
Reply text: > 100 µM (inactive)

###

test system: HOP-92; assay: NCI tumour cell line growth inhibition, 48 h
Active and inactive are the calls of the source. Cut-off read from the data, not from the text of the source: active = GI50 up to about 1.1 µM and inactive = higher.
Please answer using one outcome listed in active, inactive

Solved entries:
- compound: "CC#CC#C/C=C1/O[C@]2(CCC(OC(C)=O)CO2)[C@@H]2O[C@H]12 (some centres not stated)"
  target.system: "HOP-92"
  label.value: "inactive"
- compound: "Cc1cn(C2CC(O)C(CO)O2)c(=O)n2nnnc12 (configuration not stated)"
  target.system: "HOP-92"
  label.value: "inactive"
- compound: "COC1/C=C\\C=C(/C)C(=O)NC2=CC(=O)C(NCCCl)=C(CC(C)CC(OC)C(O)C(C)/C=C(/C)C1OC(N)=O)C2=O (configuration not stated)"
  target.system: "HOP-92"
  label.value: "active"
- compound: "Cc1cnc2sn(-c3ccc(Br)cc3)c(=O)c2c1"
  target.system: "HOP-92"
  label.value: "inactive"
- compound: "O=C(N/C(=C\\c1ccccc1O)c1nc2ccccc2[nH]1)c1ccccc1"
  target.system: "HOP-92"
  label.value: "inactive"
- compound: "NC(CCP(=O)(O)CCC1C=CC=CC1)C(=O)O (configuration not stated)"
  target.system: "HOP-92"
  label.value: "inactive"

Inquiry: Outcome? N=C(N)SCc1cccc2c(=O)cc(-c3ccccc3)oc12
Reply text: inactive

Inquiry: Outcome? C=C1CC2OC2(C(=O)O[C@H]2CCC3[C@@H]4CCC5=CC(=O)CC[C@]5(C)C4CC[C@@]32C)C1=O (some centres not stated)
Reply text: inactive

Inquiry: Outcome? O=c1c2cc(I)ccc2nc(Sc2ncccc2[N+](=O)[O-])n1Cc1ccccc1
Reply text: inactive

Inquiry: Outcome? CC(C)(C)N1Cc2ccccc2/C(=C/Sc2ccccc2)C1=O
Reply text: inactive

Inquiry: Outcome? Cc1ccc(S(=O)(=O)N2CCC(C(=O)O)(c3ccccc3)CC2)cc1
Reply text: inactive

###

Examples of molecules with documented GI50 follow.
system: MCF7; test: NCI tumour cell line growth inhibition, 48 h
Calls of active or inactive are those of the source. Rule as the data show it: active = GI50 up to about 1.1 µM and inactive = higher.

- molecule: "CCN1CSC(=S)N(CC)C1"
  endpoint: "GI50"
  value.reported: "41 µM (inactive)"
- molecule: "COc1ccc2c3c(c4cc(OC)c(OC)cc4c2c1)C[C@H]1CCCCN1C3"
  endpoint: "GI50"
  value.reported: "0.005 µM (active)"

Inquiry: What does the record list as GI50 for COc1ccc(S(=O)(=O)NC(CCC(=O)NC(N)=O)C(=O)NC(N)=O)cc1 (stereo not given) ?
Reply text: > 100 µM (inactive)

Inquiry: What does the record list as GI50 for COC(=O)[C@H](Cc1ccc(OC(C)(C)C)cc1)N[C@H](C)C(=O)N[C@@H](Cc1ccccc1)C(=O)OCc1ccccc1 ?
Reply text: 34.5 µM (inactive)

Inquiry: What does the record list as GI50 for COc1ccc(C2=CC(C(C)=C(C(N)=O)C(N)=O)C=C(c3ccc(Br)cc3)C2)c(OC)c1 (stereo not given) ?
Reply text: > 100 µM (inactive)
